Every entry's value here was drawn from ChEMBL document CHEMBL1201862.

# GI50 per entry
# Tested on: Malme-3M
# METHOD NOTES: NCI tumour cell line growth inhibition, 48 h
Active and inactive are the calls of the source. Rule as the data show it: active = GI50 up to about 1.1 µM and inactive = higher.

N=C(N)NNC(=O)CCCCCCCC(=O)NNC(=N)N :: > 100 µM (inactive)
C=CCNC(=O)N(CCCC(NC(C)=O)C(=O)NCc1ccccc1)Cc1ccccc1 (stereo not given) :: > 100 µM (inactive)
Cc1cn2c(C)csc2c1P(=O)(OC(C)C)OC(C)C :: > 100 µM (inactive)
CNCCCNC(=S)Cn1cc(C)c(=O)[nH]c1=O :: > 100 µM (inactive)
O=C(NN1C(=O)C(Cl)C1c1cccc(O)c1)c1ccccc1O (stereo not given) :: > 100 µM (inactive)

Continue with the next compound.
Incoming: Item under review: `COc1ccc(/C=C/C(=O)Oc2cc(O)cc(O)c2)cc1` . Reported GI50?
Outgoing: 36.6 µM (inactive)

----------
# GI50 per entry
# Tested on: UO-31
# METHOD NOTES: NCI tumour cell line growth inhibition, 48 h
Active and inactive are the calls of the source. Rule as the data show it: active = GI50 up to about 1.1 µM and inactive = higher.

Record excerpt, results attached:
CCCC(c1cc(C(C)(C)C)c(O)cc1C)c1cc(C(C)(C)C)c(O)cc1C :: 3.33 µM (inactive)
N#C/C(=C/N1C(=O)/C(=C/c2ccc([N+](=O)[O-])cc2)SC1=S)c1nc2ccccc2s1 :: 16.1 µM (inactive)
O=C(O)/C=c1/c2ccccc2n2nc3ccccc3c12 :: 37.6 µM (inactive)
C=CCNC(=O)N(CCCC(NC(C)=O)C(=O)NCc1ccccc1)Cc1ccccc1 (stereo not drawn) :: > 100 µM (inactive)
CCOS(C)(=O)=O [METHANESULFONIC ACID ETHYL ESTER] :: > 100 µM (inactive)
CCCCc1c(C(=O)OC(C)(C)C)cc(C#Cc2cc(C(=O)OC(C)(C)C)c(CCCC)c(C(=O)OC(C)(C)C)c2)cc1C(=O)OC(C)(C)C :: > 100 µM (inactive)
O=S(=O)(Nc1nc2ccccc2nc1Nc1cccc2ccccc12)c1ccccc1 :: 2.43 µM (inactive)
Cc1ccc(S(=O)(=O)N/N=C(\c2nc3ccc(Cl)cc3nc2O)C(O)c2cccc([N+](=O)[O-])c2)cc1 (stereo not drawn) :: > 100 µM (inactive)
CCN(CC)Cc1cc(Nc2ccnc3ccc4c(nnn4C)c23)ccc1O :: 6.62 µM (inactive)
COC(O)C(=O)c1c2c(cc3c1CCC3)CCC2 (stereo not drawn) :: > 100 µM (inactive)

Incoming: Item under review: `CC(=O)O[C@@H]1C(=O)N(c2ccccc2)[C@@H]1c1cc2ccccc2c2ccccc12` . Reported GI50?
Outgoing: 22.2 µM (inactive)

Incoming: Request: `O=C1NC(N2CCOCC2)=N/C1=C\c1ccc(O)cc1`
Outgoing: > 100 µM (inactive)

Incoming: Request: `COc1ccc(-c2cc(=O)c3c(O)cc(C)cc3o2)cc1OC`
Outgoing: > 100 µM (inactive)

Incoming: Request: CC1OC(OC2C(O[C@H]3CC[C@@]4(C)C(=CC[C@H]5[C@@H]6C[C@@H]7O[C@]8(CC[C@@H](C)CO8)[C@@H](C)[C@@H]7[C@@]6(C)CC[C@@H]54)C3)OC(CO)C(O)C2OC2OC(CO)C(O)C(O)C2O)C(O)C(O)C1O (stereo partly drawn)
Outgoing: 1.94 µM (inactive)

Incoming: Request: `COc1cc(/C=N\c2ccc(C(C)C)cc2)cc(OC)c1OC`
Outgoing: > 74.1 µM (inactive)

Incoming: Request: CN1C(=O)n2c(nc3ccccc32)C(N=[N+]=[N-])(N=[N+]=[N-])C1=O (stereo not drawn)
Outgoing: > 100 µM (inactive)

Incoming: Request: CCC1(c2ccc(OC)c(OC)c2)CCN(S(=O)(=O)c2ccc(C)cc2)C1 (stereo not drawn)
Outgoing: > 100 µM (inactive)

Incoming: Request: CC1CCP(=O)(c2ccccc2)c2ccccc21 (stereo not drawn)
Outgoing: > 100 µM (inactive)

----------
# Test system: Hs-578T
# METHOD NOTES: NCI tumour cell line growth inhibition, 48 h
Active and inactive are the calls of the source. Rule as the data show it: active = GI50 up to about 1.1 µM and inactive = higher.
# GI50 per entry

Incoming: Item under review: `CCCCCCc1cc2cc(C(=O)Nc3ccc(F)cc3)c(=N)oc2cc1O` . Reported GI50?
Outgoing: 0.9 µM (active)

Incoming: Request: `S=C(NN=C1NCCCCN1)Nc1ccc(Cl)cc1`
Outgoing: 60 µM (inactive)

----------
# Test system: EKVX
# METHOD NOTES: NCI tumour cell line growth inhibition, 48 h
The source made the active and inactive calls. No stated cut-off is given here; in the data, active = GI50 up to about 1.1 µM and inactive = higher.
# GI50 per entry

Record excerpt, results attached:
CCOP(=O)(OCC)C(Nc1cccc([N+](=O)[O-])c1)c1ccccc1 (stereo unspecified) :: 62.2 µM (inactive)
OC(CC1CCCCN1)c1ccc2c(c1)oc1ccccc12 (stereo unspecified) :: 49 µM (inactive)
O=[N+]([O-])c1ccc2c(c1)C1=C(CO2)Cc2ccccc2O1 :: 27.2 µM (inactive)
CC1OC(OC2C(O[C@H]3CC[C@@]4(C)C(=CC[C@H]5[C@@H]6C[C@@H]7O[C@]8(CC[C@@H](C)CO8)[C@@H](C)[C@@H]7[C@@]6(C)CC[C@@H]54)C3)OC(CO)C(O)C2OC2OC(CO)C(O)C(O)C2O)C(O)C(O)C1O (stereo partly specified) :: 12.4 µM (inactive)
CCOP(=O)(O)C1C(CO)OC(n2ccc(=O)[nH]c2=O)C1O (stereo unspecified) :: > 100 µM (inactive)
COC1(OC)CC2C=C(S(=O)(=O)c3ccccc3)C1N(Cc1ccccc1)C2=O (stereo unspecified) :: 91.4 µM (inactive)

Incoming: Item under review: O=C(O)CCc1nc2ccccc2[nH]1 [PROCODAZOLE] . Reported GI50?
Outgoing: > 100 µM (inactive)

Incoming: Request: `c1ccc2c(c1)CCc1c(-c3n[nH]c4c3CCc3ccccc3-4)n[nH]c1-2`
Outgoing: > 100 µM (inactive)

Incoming: Request: `N#C/N=C(/NCCc1c[nH]c2ccccc12)Oc1ccccc1`
Outgoing: 26.7 µM (inactive)

Incoming: Request: CO[C@H](C(=O)O[C@H]1C(=O)N2CC[C@@H]3CCC[C@H]1C32C)c1ccccc1 (stereo partly specified)
Outgoing: > 100 µM (inactive)

Incoming: Request: C=C=C(C(=O)OC)[S+]([O-])c1ccccc1[N+](=O)[O-] (stereo unspecified)
Outgoing: > 100 µM (inactive)

----------
# Tested on: SW-620
# METHOD NOTES: NCI tumour cell line growth inhibition, 48 h
The source made the active and inactive calls. Cut-off read from the data, not from the text of the source: active = GI50 up to about 1.1 µM and inactive = higher.
Answer with one of the outcomes T for active, F for inactive

# example entries with known answers
Nc1ccc(C(=O)NN2C(=O)C(Cl)C2c2ccc([N+](=O)[O-])cc2)cc1 (stereo unspecified) :: F
CNC(=O)CN(CC(=O)NC)C(=O)NC :: F
N#CC(C#N)=Cc1c(O)ccc2ccccc12 :: F

Incoming: Assay outcome for O=C(O)C1C(=O)Oc2c(cccc2[N+](=O)[O-])C1O (stereo unspecified) : what was it?
Outgoing: F

Incoming: Request: `N#Cc1c(-c2ccco2)cc(-c2ccccc2)nc1O`
Outgoing: F

Incoming: Request: `CNCCCNc1c2ccccc2nc2cccc([N+](=O)[O-])c12`
Outgoing: T

----------
# GI50 per entry
# Tested on: 786-0
# METHOD NOTES: NCI tumour cell line growth inhibition, 48 h
The source made the active and inactive calls. Cut-off read from the data, not from the text of the source: active = GI50 up to about 1.1 µM and inactive = higher.

C[C@]12CC[C@H](OC(=O)Nc3ccccc3)CC1=CC[C@@H]1C2CC[C@]2(C)/C(=N/OC(=O)Nc3ccccc3)CCC12 (some centres undefined) :: > 100 µM (inactive)
O=[N+]([O-])C(=C1NCCN1)/C(Cl)=C(\Cl)Br :: 17.6 µM (inactive)

Incoming: Item under review: `Cc1cc2c(O)c(c1)COCc1cc(C)cc(c1O)COCc1cc(C)cc(c1O)COC2` . Reported GI50?
Outgoing: 47.1 µM (inactive)

Incoming: Request: `CSc1nc(C#N)c(N)n1C`
Outgoing: > 100 µM (inactive)

Incoming: Request: `O=c1oc2ccccc2cc1-c1cc2ccccn2c1`
Outgoing: > 100 µM (inactive)

Incoming: Request: C=C1c2cc3c(cc2CC12Cc1cc4c(cc1C2=O)CCC4)CCC3 (centres undefined)
Outgoing: > 100 µM (inactive)

Incoming: Request: N#CC(/C(=N/NC(=O)C(=O)NN)C(=O)NC12CC3CC(CC(C3)C1)C2)c1ccccc1 (centres undefined)
Outgoing: > 100 µM (inactive)

Incoming: Request: `O=[N+]([O-])/C=C/c1ccc2ccccc2c1`
Outgoing: 2.85 µM (inactive)

Incoming: Request: OC(CC1CCCCN1)c1ccc2c(c1)oc1ccccc12 (centres undefined)
Outgoing: > 100 µM (inactive)

Incoming: Request: `COC(=O)C12CCCN1CCC2`
Outgoing: > 100 µM (inactive)

Incoming: Request: Brc1cccc(C2SCc3nc4ccccc4n32)c1 (centres undefined)
Outgoing: 17.5 µM (inactive)

Incoming: Request: CC1CC(N2CCOCC2)=Nc2ccccc2N1Cc1ccccc1 (centres undefined)
Outgoing: > 100 µM (inactive)

Incoming: Request: `CC(=O)O[C@@H]1C(=O)N(c2ccccc2)[C@@H]1c1cc2ccccc2c2ccccc12`
Outgoing: 42.2 µM (inactive)

Incoming: Request: `O=c1[nH]c(Br)nc2c(N3CCCCC3)c[nH]c12`
Outgoing: > 100 µM (inactive)

Incoming: Request: `NNC(=O)c1cc([N+](=O)[O-])ccc1NC(=O)C12CC3CC(CC(C3)C1)C2`
Outgoing: 11.7 µM (inactive)

Incoming: Request: `C/C(=N\NC(=S)NC(C)C)c1nc2cccnc2[nH]1`
Outgoing: 20.3 µM (inactive)

Incoming: Request: `CCCN(CCC)C(=O)c1c(N2CCN(C)CC2)c2cccnc2n2c(C)cnc12`
Outgoing: > 100 µM (inactive)

Incoming: Request: CCC1(c2ccc(OC)c(OC)c2)CCN(S(=O)(=O)c2ccc(C)cc2)C1 (centres undefined)
Outgoing: > 100 µM (inactive)

Incoming: Request: `COC(=O)C1=C(C(=O)OC)SC(=CC#CC=C2SC(C(=O)OC)=C(C(=O)OC)S2)S1`
Outgoing: 5.79 µM (inactive)
